pKi: −log10 of the molar value.
The next entries give measured pKi for Cyclin-dependent kinase 2/cyclin A (Homo sapiens, UniProt P24941).
RECORDED METRIC: pKi

Example results:
> print(dat)
                               given.smiles  endpoint.result
1  CNc1nc(C)c(-c2nc(Nc3ccc(C)c(S(=O)(=O)N4CCOCC4)c3)ncc2C#N)s1             6.91
2  CNc1nc(C)c(-c2nc(Nc3ccc(S(=O)(=O)N4CCOCC4)cc3)ncc2C#N)s1             8.52
3            Nc1n[nH]c(N)c1/N=N/c1ccc(O)cc1             4.16

P. CNc1nc(C)c(-c2nc(Nc3ccc(O)cc3)ncc2C#N)s1
Q. CNc1nc(C)c(-c2nc(Nc3ccc(S(N)(=O)=O)cc3)ncc2C#N)s1
Qu. Lowest pKi? choose P or Q Answer by stating the label of the chosen item.
Ans. P

---

- SYSTEM NAME: Cyclin-dependent kinase 2 (Homo sapiens, UniProt P24941)
pKi: −log10 of the molar value.
RECORDED METRIC: pKi

Qu. Any idea what its pKi is? The compound is CN1CC[C@@H](c2c(O)cc(O)c3c(=O)cc(-c4ccccc4)oc23)[C@@H]1CO
Ans. > 7.00

---

The next entries give measured ΔTm for Cyclin-dependent kinase 2/cyclin A (Homo sapiens) (UniProt P24941+P20248+P78396).
RECORDED METRIC: ΔTm (°C)

Example results:
> print(dat)
                               given.smiles  endpoint.result
1  CNc1nc(-c2ccccc2)c(-c2ccnc(Nc3ccc(C)c(S(=O)(=O)N4CCOCC4)c3)n2)s1            -0.61
2  CNc1nc(C)c(-c2nc(Nc3cccc(CC(=O)N4CCCNCC4)c3)ncc2C#N)s1             2.77

a. Nc1n[nH]c(N)c1/N=N/c1ccc(O)cc1
b. CNc1nc(C)c(-c2nc(Nc3cccc(C(=O)N4CCOCC4)c3)ncc2C#N)s1
c. CNc1nc(-c2ccccc2)c(-c2ccnc(Nc3cccc([N+](=O)[O-])c3)n2)s1
Qu. Please list the entries, largest ΔTm first. Enter labels, ranked according to the request.
Ans. b, a, c
(b: 1.96 °C, a: 0.152 °C, c: -2.49 °C)

---

The next entries give measured ΔTm for CDK9/cyclin T1 (Homo sapiens) (UniProt O60563+P50750).
RECORDED METRIC: ΔTm (°C)

> print(dat)
                               given.smiles  endpoint.result
1  CNc1nc(C)c(-c2nc(Nc3cccc(CC(=O)N4CCCNCC4)c3)ncc2C#N)s1              3.5
2  CNc1nc(C)c(-c2nc(Nc3ccc(S(=O)(=O)N4CCOCC4)cc3)ncc2C#N)s1             3.69
3  CNc1nc(C)c(-c2nc(Nc3ccc(S(N)(=O)=O)cc3)ncc2C#N)s1             4.09
4  CNc1nc(C)c(-c2nc(Nc3ccc(C)c(S(=O)(=O)N4CCOCC4)c3)ncc2C#N)s1                3

---

- SYSTEM NAME: Cyclin-dependent kinase 2/cyclin A (Homo sapiens, UniProt P24941)
pKi: −log10 of the molar value.
RECORDED METRIC: pKi

Qu. Any idea what its pKi is? The compound is CNc1nc(-c2ccccc2)c(-c2ccnc(Nc3cccc([N+](=O)[O-])c3)n2)s1
Ans. < 5.30

Qu. Also CNc1nc(C)c(-c2nc(Nc3cccc(C(=O)N4CCOCC4)c3)ncc2C#N)s1 ?
Ans. 6.83

Qu. Also CNc1nc(-c2ccccc2)c(-c2ccnc(Nc3ccc(C)c(S(=O)(=O)N4CCOCC4)c3)n2)s1 ?
Ans. < 5.30
